Assay: Metabolic stability in liver microsome (human)
Assay type: in vitro ADME
Settings: human liver microsome 0.5 mg/mL, compound 1 μM, 60 min
What Remaining (%, 60 min) was measured for each of the following?
Lab book: enter the figure in %, no units written.

Inquiry: Look up and report measured Remaining (%, 60 min) for this entry: CCc1cc2n(CC(=O)Nc3ccc(F)cn3)c(=O)c3ccc(C(F)(F)F)nc3n2n1
Reply text: 113.9

Inquiry: Look up and report measured Remaining (%, 60 min) for this entry: O=C(Cn1c(=O)c2ccc(C(F)(F)F)nc2n2nccc12)Nc1ccc(F)cn1
Reply text: 97.5

Inquiry: Look up and report measured Remaining (%, 60 min) for this entry: O=C(Cn1c(=O)c2ccc(C(F)(F)F)nc2n2nc(Br)cc12)Nc1ccc(F)cn1
Reply text: 100.4

Inquiry: Look up and report measured Remaining (%, 60 min) for this entry: N#Cc1cc2n(CC(=O)Nc3ccc(F)cn3)c(=O)c3ccc(C(F)(F)F)nc3n2n1
Reply text: 101.2

---

Test: Pharmacokinetic assay in Balb/C mice
Type: in vivo
Conditions: male, mouse, po, p.o. 5 mg/kg, plasma, 0.5% CMC-Na (1% Tween 80), read-out: Peak time tmax
Result Type: Tmax (h)
Lab book: enter the figure in h, no units written.

Inquiry: Look up and report measured Tmax for this entry: CC(C)(C)c1cc2n(CC(=O)Nc3ccc(F)cn3)c(=O)c3ccc(C(F)(F)F)nc3n2n1
Reply text: 0.5

Inquiry: Look up and report measured Tmax for this entry: O=C(Cn1c(=O)c2ccc(C(F)(F)F)nc2n2nccc12)Nc1ccc(F)cn1
Reply text: 1

Inquiry: Look up and report measured Tmax for this entry: CCc1cc2n(CC(=O)Nc3ccc(F)cn3)c(=O)c3ccc(C(F)(F)F)nc3n2n1
Reply text: 1

Inquiry: Look up and report measured Tmax for this entry: N#Cc1cc2n(CC(=O)Nc3ccc(F)cn3)c(=O)c3ccc(C(F)(F)F)nc3n2n1
Reply text: 2

Inquiry: Look up and report measured Tmax for this entry: O=C(Cn1c(=O)c2ccc(C(F)(F)F)nc2n2nc(Br)cc12)Nc1ccc(F)cn1
Reply text: 2

---

What AUC(0-t) was measured for each of the following?
Test: Pharmacokinetic assay in rats
Type: in vivo
Settings: male, rat, po; SD rats, p.o. 5 mg/kg, plasma, 0.5% CMC-Na (1% Tween 80); read-out: Area under curve AUC0-t
Lab book: enter the figure in ng·h/mL, no units written.

Inquiry: Look up and report measured AUC(0-t) for this entry: N#Cc1cc2n(CC(=O)Nc3ccc(F)cn3)c(=O)c3ccc(C(F)(F)F)nc3n2n1 [Example 68]
Reply text: 9850

Inquiry: Look up and report measured AUC(0-t) for this entry: CCc1cc2n(CC(=O)Nc3ccc(F)cn3)c(=O)c3ccc(C(F)(F)F)nc3n2n1 [Example 34]
Reply text: 5780

Inquiry: Look up and report measured AUC(0-t) for this entry: O=C(Cn1c(=O)c2ccc(C(F)(F)F)nc2n2nc(Br)cc12)Nc1ccc(F)cn1 [Example 61-A]
Reply text: 12000

Inquiry: Look up and report measured AUC(0-t) for this entry: O=C(Cn1c(=O)c2ccc(C(F)(F)F)nc2n2nccc12)Nc1ccc(F)cn1 [Example 78]
Reply text: 6810

Inquiry: Look up and report measured AUC(0-t) for this entry: N#Cc1cnn2c3nc(C(F)(F)F)ccc3c(=O)n(CC(=O)Nc3ccc(F)cn3)c12 [Example 80]
Reply text: 21300
